Test system: NOMO1
Test: cell viability relative to DMSO control; higher = less cytotoxic
Details: RPMI 5 mM glucose + 10% dialyzed FBS; 48 h; 15.4 µM
measured metric: cell viability
Phrase the answer as number then unit, nothing more needed.

Below: 3 compounds and their reported cell viability.
CCC(CCCC)COC(=O)C(\C#N)=C(\c1ccccc1)c2ccccc2 (configuration not stated)
87.2%
Cc1ccc(C(=O)Nc2cccc(C(F)(F)F)c2)cc1Nc1nc(-c2cccnc2)nc2c1cnn2C
77.6%
OC(=O)\C1=C\N(C2CC2)C3=CC(=C(F)C=C3C1=O)N4CCNCC4
63.5%

Hi there! I need cell viability for each item below, if you can.
1. CCCCCCNC(=O)N1\C=C(F)/C(=O)NC1=O
2. Cc1cn2cc(C(=O)N(C)CCO)cc(N[C@@H]3CCOc4cccc(C)c43)c2n1
3. C[C@H](NC(=O)Cc1cc(F)cc(F)c1)C(=O)N[C@H](C(=O)OC(C)(C)C)c1ccccc1
4. CC(C)c1onc(-c2c(Cl)cccc2Cl)c1COc1ccc(/C=C/c2cccc(C(=O)O)c2)c(Cl)c1

1: 82.3%; 2: 128%; 3: 79.5%; 4: 109%

---

Could you please report measured cell viability for the items listed next?
System: P12-Ichikawa
Test: cell viability relative to DMSO control; higher = less cytotoxic
Settings: HPLM + 10% dialyzed FBS; 48 h; 0.0632 µM
One number for each entry, in %.

Below: 5 molecules and their reported cell viability.
CN1CCc2c(c3ccccc3n2Cc2ccc(C(=O)NO)cc2)C1
91.5
Cc1ccc2nc(NCCN)c3ncc(C)n3c2c1
106
O=C1NC(=O)/C(=C/c2ccc3nccnc3c2)S1
115
CO[C@H]1CCC(O[C@H]2C[C@H]([C@]3(C)CC[C@]4(C[C@H](O)[C@@H](C)[C@@H]([C@@H](C)/C=C(\C)C(=O)[C@H](C)C[C@H](C)C(=O)[O-])O4)O3)O[C@]3(O[C@@H]([C@H]4O[C@@](O)(CO)[C@H](C)C[C@@H]4C)C[C@@H]3C)[C@@H]2C)O[C@@H]1C (some centres undefined)
111
CN(CCOc1ccc(CC2SC(=O)NC2=O)cc1)c1ccccn1 (centres undefined)
116

Hi there! I need cell viability for each item below, if you can.
1. CCC(CCCC)COC(=O)C(\C#N)=C(\c1ccccc1)c2ccccc2 (centres undefined)
2. c1cc(-c2cnn3cc(-c4ccc(OCCN5CCCCC5)cc4)cnc23)ccn1
3. CCNC(=O)CCC/C=C\C[C@@H]1[C@@H](/C=C/C(O)CCc2ccccc2)[C@@H](O)C[C@@H]1O (some centres undefined)
4. CC(C)C1CCC(C(=O)N[C@H](Cc2ccccc2)C(=O)O)CC1 (some centres undefined)
5. C[C@H](CCC(=O)O)[C@H]1CC[C@H]2[C@@H]3[C@H](O)C[C@@H]4C[C@H](O)CC[C@]4(C)[C@H]3CC[C@]12C
6. CC/C=C\C[C@H]1C(=O)CC[C@@H]1CC(=O)OC

1: 106; 2: 97; 3: 116; 4: 95; 5: 98.8; 6: 126

---

System: P12-Ichikawa
Test: cell viability relative to DMSO control; higher = less cytotoxic
Settings: RPMI 5 mM glucose + 10% dialyzed FBS; 48 h; 46.1 µM
measured metric: cell viability (%)
Answers are plain numbers, in %.

CC(C)C1CCC(C(=O)N[C@H](Cc2ccccc2)C(=O)O)CC1 (stereo partly specified)
84.6
NC(=O)c1cccc(-c2cc(Nc3ccc(OC(F)(F)F)cc3)ncn2)c1
81.5
O=C1NC(=O)/C(=C/c2ccc3nccnc3c2)S1
97.1
CCC(CCCC)COC(=O)C(\C#N)=C(\c1ccccc1)c2ccccc2 (stereo unspecified)
95.9

Hi there! I need cell viability for each item below, if you can.
1. C=CC(=O)Nc1cccc(Sc2nc(Nc3ccc(N4CCN(C)CC4)cc3)ncc2Cl)c1
2. CCN(CC)CCNC(=O)c1c(C)[nH]c(/C=C2\C(=O)Nc3ccc(F)cc32)c1C

1: 26.3; 2: 2.75
